biological target: UniProtKB Q06124
Sequence (Q06124 whole entry): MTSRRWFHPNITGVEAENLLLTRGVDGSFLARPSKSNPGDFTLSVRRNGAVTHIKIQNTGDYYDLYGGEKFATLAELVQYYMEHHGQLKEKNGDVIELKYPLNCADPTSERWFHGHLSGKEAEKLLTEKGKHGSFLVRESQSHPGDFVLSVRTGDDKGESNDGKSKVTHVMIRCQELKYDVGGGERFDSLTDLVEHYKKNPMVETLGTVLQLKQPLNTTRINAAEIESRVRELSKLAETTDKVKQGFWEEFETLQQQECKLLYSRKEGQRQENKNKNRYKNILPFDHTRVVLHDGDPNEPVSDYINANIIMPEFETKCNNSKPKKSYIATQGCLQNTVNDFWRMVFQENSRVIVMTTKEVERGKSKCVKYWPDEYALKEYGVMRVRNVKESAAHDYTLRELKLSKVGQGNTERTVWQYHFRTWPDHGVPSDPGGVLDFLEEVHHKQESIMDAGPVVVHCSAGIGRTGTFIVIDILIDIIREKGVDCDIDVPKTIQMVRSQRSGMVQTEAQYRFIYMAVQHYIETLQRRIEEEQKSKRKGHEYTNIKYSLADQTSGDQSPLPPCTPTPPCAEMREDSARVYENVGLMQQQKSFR
pIC50: −log10 of the molar value.
outcome_measure: pIC50

compound: COc1cccc(Sc2cnc(N3CCC4(CC3)CO[C@@H](C)[C@H]4N)c(=O)[nH]2)c1Cl
measured_on: UniProtKB Q06124
obs_value: ≥ 7.30
//
compound: C[C@@H]1OCC2(CCN(c3ncc(Sc4cccc(Cl)c4Cl)[nH]c3=O)CC2)[C@@H]1N
measured_on: UniProtKB Q06124
obs_value: ≥ 7.30
//
compound: C[C@@H]1OCC2(CCN(c3ncc(Sc4ccnc(F)c4F)[nH]c3=O)CC2)[C@@H]1N
measured_on: UniProtKB Q06124
obs_value: ≥ 7.30
//
compound: C[C@@H]1OCC2(CCN(c3ncc(Sc4ccnc(N)c4Cl)[nH]c3=O)CC2)[C@@H]1N
measured_on: UniProtKB Q06124
obs_value: ≥ 7.30
//
compound: NC1C2CC2CC12CCN(c1ncc(Sc3cccc(Cl)c3Cl)[nH]c1=O)CC2 (centres unmarked)
measured_on: UniProtKB Q06124
obs_value: ≥ 7.30
//
compound: N[C@@H]1c2ccccc2CC12CCN(c1ncc(Sc3cccc(Cl)c3Cl)[nH]c1=O)CC2
measured_on: UniProtKB Q06124
obs_value: ≥ 7.30
//
compound: C[C@@H]1OCC2(CCN(c3ncc(Sc4cccc(F)c4F)[nH]c3=O)CC2)[C@@H]1N
measured_on: UniProtKB Q06124
obs_value: ≥ 7.30
//
compound: C[C@@H]1OCC2(CCN(c3ncc(Sc4cccc(F)c4Cl)[nH]c3=O)CC2)[C@@H]1N
measured_on: UniProtKB Q06124
obs_value: ≥ 7.30

====

Test system: cells
Test: Cell Proliferation Assay (CellTiter Glo)
Assay type: cell-based
Settings: 3-5 days incubation, CellTiter Glo; read-out: IC50
Method: Firstly, the cells were seeded in 384-well cell culture plate and incubate overnight. The test compounds were added to the cell plate and incubated for 3-5 days. The cell plate was then detected using CellTiter Glo reagents.
pIC50: −log10 of the molar value.

query_smiles: C[C@@H]1OCC2(CCN(c3ncc(Sc4cccc(F)c4F)[nH]c3=O)CC2)[C@@H]1N
pIC50: > 5.30
//
query_smiles: C[C@@H]1OCC2(CCN(c3ncc(Sc4cccc(F)c4Cl)[nH]c3=O)CC2)[C@@H]1N
pIC50: > 5.30
//
query_smiles: CC1(CN)CCN(c2ncc(Sc3cccc(NC(=O)c4c(O)nc5ccccn5c4=O)c3Cl)[nH]c2=O)CC1
pIC50: > 5.30
//
query_smiles: C[C@@H]1OCC2(CCN(c3ncc(Sc4cccc(Cl)c4Cl)[nH]c3=O)CC2)[C@@H]1N
pIC50: > 6.00
//
query_smiles: CC1(CN)CCN(c2ncc(Sc3cccc(NC(=O)c4c(O)nc5sccn5c4=O)c3Cl)[nH]c2=O)CC1
pIC50: > 5.30
//
query_smiles: C[C@@H]1OCC2(CCN(c3ncc(Sc4ccnc(F)c4F)[nH]c3=O)CC2)[C@@H]1N
pIC50: > 6.00
//
query_smiles: C[C@@H]1OCC2(CCN(c3ncc(Sc4ccnc(Cl)c4Cl)[nH]c3=O)CC2)[C@@H]1N
pIC50: > 6.00
//
query_smiles: C[C@@H]1OCC2(CCN(c3ncc(Sc4ccnc(F)c4Cl)[nH]c3=O)CC2)[C@@H]1N
pIC50: > 6.00
//
query_smiles: N[C@@H]1COCC12CCN(c1ncc(Sc3cccc(Cl)c3Cl)[nH]c1=O)CC2
pIC50: > 5.30
